Target: DPAP1 (Plasmodium falciparum, UniProt Q8IIJ9)
Sequence (Q8IIJ9 370-599 limits assumed): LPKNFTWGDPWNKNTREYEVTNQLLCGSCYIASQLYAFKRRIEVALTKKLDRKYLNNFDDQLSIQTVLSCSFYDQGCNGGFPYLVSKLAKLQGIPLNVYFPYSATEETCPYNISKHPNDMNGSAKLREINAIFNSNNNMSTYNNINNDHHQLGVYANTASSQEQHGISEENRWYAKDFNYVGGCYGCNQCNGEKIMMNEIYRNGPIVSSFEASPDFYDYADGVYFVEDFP
Sequence (Q8IIJ9 28-209 limits assumed): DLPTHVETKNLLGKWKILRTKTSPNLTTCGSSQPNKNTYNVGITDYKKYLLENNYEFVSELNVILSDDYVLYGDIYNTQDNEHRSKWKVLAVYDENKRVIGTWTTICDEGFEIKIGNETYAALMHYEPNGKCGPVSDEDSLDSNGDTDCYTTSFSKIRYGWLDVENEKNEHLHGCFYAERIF
Sequence (Q8IIJ9 600-700 limits assumed): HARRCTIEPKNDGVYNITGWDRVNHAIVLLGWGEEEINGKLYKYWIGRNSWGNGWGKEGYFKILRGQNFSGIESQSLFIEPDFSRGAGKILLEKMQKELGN
Assay: biochemical
Format: biochemical
Conditions: 10 μM compound, parasite lysates, (PR)2Rho, 30 min end-point; read-out: DPAP1 % Inhibition @ 10 uM
PARAMETER MEASURED: inhibition at 10 µM (%)
Reply with just the number (in %).

| COMPOUND | TGT | PARAMETER MEASURED | UNIT | NUMBER |
| --- | --- | --- | --- | --- |
| Cc1ccccc1C1CC(=O)N2CN(C3CCCCC3)CSC2=C1C#N (centres unmarked) | DPAP1 (Plasmodium falciparum, UniProt Q8IIJ9) | inhibition at 10 µM | % | 24 |
| COc1ccc2ccccc2c1C1CC(=O)N2CN(Cc3ccccc3)CSC2=C1C#N (centres unmarked) | DPAP1 (Plasmodium falciparum, UniProt Q8IIJ9) | inhibition at 10 µM | % | 36 |
| CCOc1ccc(C2CC(=O)N3CN(Cc4ccco4)CSC3=C2C#N)cc1 (centres unmarked) | DPAP1 (Plasmodium falciparum, UniProt Q8IIJ9) | inhibition at 10 µM | % | 43 |
| CCOc1ccc(C2CC(=O)N3CN(Cc4ccccc4)CSC3=C2C#N)cc1 (centres unmarked) | DPAP1 (Plasmodium falciparum, UniProt Q8IIJ9) | inhibition at 10 µM | % | 49 |

Now take the following compound into account.
Item: COc1cc(C2CC(=O)N3CN(C)CSC3=C2C#N)cc(OC)c1OC (centres unmarked) Test system: DPAP1 (Plasmodium falciparum, UniProt Q8IIJ9) Read-out: inhibition at 10 µM Value: ?
4

====

Biological target: DPAP1 (Plasmodium falciparum, UniProt Q8IIJ9)
Test: biochemical
Assay type: biochemical
Conditions: 10 μM HTS; 0 not defined
Measured DPAP Primary hit (Hit = 1), listed per entry.

Could you tell me which DPAP Primary hit (Hit = 1) is on file for CSc1ccc(C2CC(=O)N3CN(C)CSC3=C2C#N)cc1 (centres unmarked) ?
1

Lookup COc1ccc(OC)c(C2CC(=O)N3CN(C4CCCCC4)CSC3=C2C#N)c1 (centres unmarked)
0

Lookup CN1CSC2=C(C#N)C(c3ccc(Br)cc3)CC(=O)N2C1 (centres unmarked)
0

Lookup COc1cc(C2CC(=O)N3CN(C)CSC3=C2C#N)cc(OC)c1OC (centres unmarked)
0

Lookup Cc1ccccc1C1CC(=O)N2CN(Cc3ccccc3)CSC2=C1C#N (centres unmarked)
0

Lookup CN1CSC2=C(C#N)C(c3cccc(OCc4ccccc4)c3)CC(=O)N2C1 (centres unmarked)
1

Lookup COc1ccc2ccccc2c1C1CC(=O)N2CN(Cc3ccco3)CSC2=C1C#N (centres unmarked)
0

Lookup COc1ccc(OC)c(C2CC(=O)N3CN(Cc4ccco4)CSC3=C2C#N)c1 (centres unmarked)
0

====

Molecular target: DPAP1 (Plasmodium falciparum)
Test: biochemical
Format: biochemical
Conditions: 10 μM compound, parasite lysates, (PR)2Rho, 30 min end-point; read-out: DPAP1 % Inhibition @ 10 uM
PARAMETER MEASURED: inhibition at 10 µM (%)
Reply with just the number (in %).

Take a look at these entries with their results.
| COMPOUND | TGT | NUMBER |
| --- | --- | --- |
| CCc1ccc(C2CC(=O)N3CN(Cc4ccco4)CSC3=C2C#N)cc1 (stereo not drawn) | DPAP1 (Plasmodium falciparum) | 34 |
| CN1CSC2=C(C#N)C(c3cccc(OCc4ccccc4)c3)CC(=O)N2C1 (stereo not drawn) | DPAP1 (Plasmodium falciparum) | 71 |
| N#CC1=C2SCN(Cc3ccco3)CN2C(=O)CC1c1cccc2ccccc12 (stereo not drawn) | DPAP1 (Plasmodium falciparum) | 46 |
| Cc1ccccc1C1CC(=O)N2CN(Cc3ccccc3)CSC2=C1C#N (stereo not drawn) | DPAP1 (Plasmodium falciparum) | 31 |
| Cc1ccc(C2CC(=O)N3CN(CCC(C)C)CSC3=C2C#N)cc1 (stereo not drawn) | DPAP1 (Plasmodium falciparum) | 44 |

Now take the following compound into account.
Item: CCOc1ccc(C2CC(=O)N3CN(C4CCCCC4)CSC3=C2C#N)cc1 (stereo not drawn) Test system: DPAP1 (Plasmodium falciparum) Read-out: inhibition at 10 µM Value: ?
47

====

Target: DPAP1 (Plasmodium falciparum, UniProt Q8IIJ9)
Experiment: biochemical
Type: biochemical
Settings: 10 μM compound, parasite lysates, (PR)2Rho, 30 min end-point; read-out: DPAP1 % Inhibition @ 10 uM
Mark t for reported inhibition at 10 µM of 30% or greater; mark f for anything smaller.

| COMPOUND | ANSWER LABEL |
| --- | --- |
| Cc1ccccc1C1CC(=O)N2CN(Cc3ccco3)CSC2=C1C#N (centres unmarked) [SMDC170102] | f |
| COc1ccc2ccccc2c1C1CC(=O)N2CN(Cc3ccco3)CSC2=C1C#N (centres unmarked) [SMDC170165] | t |
| COc1ccc(C2CC(=O)N3CN(Cc4ccccc4)CSC3=C2C#N)c(OC)c1 (centres unmarked) [SMDC170154] | t |
| COc1ccc2ccccc2c1C1CC(=O)N2CN(C)CSC2=C1C#N (centres unmarked) [SMDC170175] | t |
| COc1ccc(Br)cc1C1CC(=O)N2CN(C)CSC2=C1C#N (centres unmarked) [SMDC170145, COc1ccc(Br)cc1C2CC(=O)N3CN(C)CSC3=C2C#N] | t |
| COc1cc(C2CC(=O)N3CN(Cc4ccccc4)CSC3=C2C#N)cc(Br)c1O (centres unmarked) [SMDC170146] | t |

In plain terms: is recorded inhibition at 10 µM at least 30% for N#CC1=C2SCN(Cc3ccccc3)CN2C(=O)CC1c1ccc(Cl)cc1 (centres unmarked) [SMDC170091] ?
t

Lookup COc1cccc(C2CC(=O)N3CN(Cc4ccco4)CSC3=C2C#N)c1OC (centres unmarked) [SMDC170134]
f

====

Target: DPAP1 (Plasmodium falciparum, UniProt Q8IIJ9)
Experiment: biochemical
Type: biochemical
Details: 10 μM compound, parasite lysates, (PR)2Rho, 30 min end-point; read-out: DPAP1 % Inhibition @ 10 uM
Measured inhibition at 10 µM, listed per entry.
Reply with just the number (in %).

Take a look at these entries with their results.
| COMPOUND | TGT | inhibition at 10 µM, % |
| --- | --- | --- |
| COc1ccc(Br)cc1C1CC(=O)N2CN(C3CCCCC3)CSC2=C1C#N (stereo not shown) [SMDC170135] | DPAP1 (Plasmodium falciparum, UniProt Q8IIJ9) | 60 |
| CN1CSC2=C(C#N)C(c3ccc(Br)cc3)CC(=O)N2C1 (stereo not shown) [SMDC170115, CN1CSC2=C(C#N)C(CC(=O)N2C1)c3ccc(Br)cc3] | DPAP1 (Plasmodium falciparum, UniProt Q8IIJ9) | 43 |
| CSc1ccc(C2CC(=O)N3CN(C)CSC3=C2C#N)cc1 (stereo not shown) [SMDC170124, CSc1ccc(cc1)C2CC(=O)N3CN(C)CSC3=C2C#N] | DPAP1 (Plasmodium falciparum, UniProt Q8IIJ9) | 75 |

Item: N#CC1=C2SCN(Cc3ccccc3)CN2C(=O)CC1c1cccc2ccccc12 (stereo not shown) [SMDC170166] Test system: DPAP1 (Plasmodium falciparum, UniProt Q8IIJ9) Read-out: inhibition at 10 µM Value: ?
52

Lookup COc1ccc(C2CC(=O)N3CN(Cc4ccccc4)CSC3=C2C#N)cc1OC (stereo not shown) [SMDC170071]
7

Lookup N#CC1=C2SCN(Cc3ccccc3)CN2C(=O)CC1c1cccs1 (stereo not shown) [SMDC170105]
41

Lookup COc1ccc(Br)cc1C1CC(=O)N2CN(Cc3ccccc3)CSC2=C1C#N (stereo not shown) [SMDC170155]
61

====

Molecular target: DPAP1 (Plasmodium falciparum, UniProt Q8IIJ9)
Assay: biochemical
Assay type: biochemical
Conditions: 10 μM HTS; 0 not defined
Measured DPAP Primary hit (Hit = 1), listed per entry.
No unit in the answer, please; the number alone is enough.

| MOLECULE | TGT | NUMBER |
| --- | --- | --- |
| CCc1ccc(C2CC(=O)N3CN(C4CCCCC4)CSC3=C2C#N)cc1 (stereo not drawn) | DPAP1 (Plasmodium falciparum, UniProt Q8IIJ9) | 1 |

Item: N#CC1=C2SCN(Cc3ccco3)CN2C(=O)CC1c1ccc(Cl)cc1 (stereo not drawn) Test system: DPAP1 (Plasmodium falciparum, UniProt Q8IIJ9) Read-out: DPAP Primary hit (Hit = 1) Value: ?
0

Lookup CCOc1cc(C2CC(=O)N3CN(Cc4ccccc4)CSC3=C2C#N)ccc1O (stereo not drawn)
0

====

Biological target: UniProt Q8IIJ9
Experiment: biochemical
Format: biochemical
Conditions: 10 μM compound, parasite lysates, (PR)2Rho, 30 min end-point; read-out: DPAP1 % Inhibition @ 10 uM
PARAMETER MEASURED: inhibition at 10 µM

Take a look at these entries with their results.
| COMPOUND | RESULT |
| --- | --- |
| N#CC1=C2SCN(Cc3ccco3)CN2C(=O)CC1c1ccc(Cl)cc1 (stereo not drawn) | 42% |
| COc1cccc(C2CC(=O)N3CN(C4CCCCC4)CSC3=C2C#N)c1OC (stereo not drawn) | 22% |
| CCOc1ccc(C2CC(=O)N3CN(C)CSC3=C2C#N)cc1OC (stereo not drawn) | 48% |
| CCc1ccc(C2CC(=O)N3CN(Cc4ccccc4)CSC3=C2C#N)cc1 (stereo not drawn) | 39% |
| COc1ccc(Br)cc1C1CC(=O)N2CN(Cc3ccco3)CSC2=C1C#N (stereo not drawn) | 61% |

Could you tell me which inhibition at 10 µM is on file for COc1cc(C2CC(=O)N3CN(C4CCCCC4)CSC3=C2C#N)ccc1O (stereo not drawn) ?
-1%

Lookup CN1CSC2=C(C#N)C(c3ccccc3)CC(=O)N2C1 (stereo not drawn)
33%
